- System: MDCK cells
- assay-summary: MTT cytotoxicity assay on MDCK cells
- Format: cell-based
- recorded-conditions: Canis lupus familiaris, 100 µmol/L, 24 h incubation, mean ± SD of three replicates, read-out: Growth Inhibition Rate (%)
molecules and their reported inhibition at 100 µM
observable: inhibition at 100 µM

- Cc1cc(O)ccc1O[C@@H]1O[C@H](CO)[C@@H](O)[C@H](O)[C@H]1O: < 0%
- Cc1cc(O)ccc1O[C@H]1O[C@@H](CO)[C@H](O)[C@@H](O[C@H]2O[C@@H](CO)[C@H](O)[C@@H](O)[C@@H]2O)[C@@H]1O: 4.89%
- O=c1c(O)c(-c2ccc(O)cc2)oc2cc(O)cc(O)c12: < 0%
